- Test system: SK-MEL-103
- testSummary: Cytotoxicity against human SK-MEL-103 cells assessed as inhibition of cell proliferation at 25 uM incubated for 72 hrs by MTT assay relative to control
- Assay type: functional
- Set-up: scale not given: the % may be the effect or the level left
Mark t only when Activity stays strictly below 50%. Values equal to the cut-off are f.

C#CCN(c1nc(-c2cccc(C)c2)no1)C1CCCCC1: f
CC(=O)OC[C@H]1O[C@H](OC[C@@H](Cn2cc(CN(c3nc(-c4cccc(Br)c4)no3)C3CCCCC3)nn2)OC(C)=O)C=C[C@@H]1OC(C)=O: f
COc1ccc(-c2noc(N(Cc3cn(C[C@H](CO[C@@H]4C=C[C@H](OC(C)=O)[C@@H](COC(C)=O)O4)OC(C)=O)nn3)C3CCCCC3)n2)cc1: t
CC(=O)OC[C@H]1O[C@H](OC[C@@H](Cn2cc(CN(c3nc(-c4ccc(F)cc4)no3)C3CCCCC3)nn2)OC(C)=O)C=C[C@@H]1OC(C)=O: t
O=[N+]([O-])c1cccc(-c2noc(NC3CCCCC3)n2)c1: t
C#CCN(c1nc(-c2cccc([N+](=O)[O-])c2)no1)C1CCCCC1: t
C#CCOc1ccc(-c2noc(NC3CCCCC3)n2)cc1: f
C#CCN(c1nc(-c2ccccc2)no1)C1CCCCC1: t
CC(=O)OC[C@H]1O[C@H](OC[C@@H](Cn2cc(CN(c3nc(-c4cccc(C)c4)no3)C3CCCCC3)nn2)OC(C)=O)C=C[C@@H]1OC(C)=O: f

====

Catalogue of CC50 at 48 h values
- testSummary: Cytotoxicity against mouse RAW264.7 cells assessed as reduction in cell viability incubated for 48 hrs by MTT assay
- Format: cell-based
measurementType: CC50 at 48 h (µg/mL)

CC(=O)OC[C@H]1O[C@H](OC[C@@H](Cn2cc(CN(c3nc(-c4ccc(F)cc4)no3)C3CCCCC3)nn2)OC(C)=O)C=C[C@@H]1OC(C)=O: 31.5
C#CCOc1ccc(-c2noc(N(CC#C)C3CCCCC3)n2)cc1: 101
CC(=O)OC[C@H]1O[C@H](OC[C@@H](Cn2cc(CN(c3nc(-c4ccc(Cl)cc4)no3)C3CCCCC3)nn2)OC(C)=O)C=C[C@@H]1OC(C)=O: 35.5
CC(=O)OC[C@H]1O[C@H](OC[C@@H](CN=[N+]=[N-])OC(C)=O)C=C[C@@H]1OC(C)=O: 106
CC(=O)OC[C@H]1O[C@H](OC[C@@H](Cn2cc(CN(c3nc(-c4cccc([N+](=O)[O-])c4)no3)C3CCCCC3)nn2)OC(C)=O)C=C[C@@H]1OC(C)=O: 100
C#CCOc1ccc(-c2noc(NC3CCCCC3)n2)cc1: 38.3
C#CCN(c1nc(-c2cccc(C)c2)no1)C1CCCCC1: 25.9

====

- testSummary: Selectivity index, ratio of CC50 for human HepG2 cells to MIC for antimycobacterial activity against Mycobacterium tuberculosis H37Rv ATCC 27294
- Type: toxicity
- assayContext: read-out: Selectivity Index
measurementType: selectivity ratio

CC(=O)OC[C@H]1O[C@H](OC[C@@H](Cn2cc(COc3ccc(-c4noc(N(Cc5cn(C[C@H](CO[C@@H]6C=C[C@H](OC(C)=O)[C@@H](COC(C)=O)O6)OC(C)=O)nn5)C5CCCCC5)n4)cc3)nn2)OC(C)=O)C=C[C@@H]1OC(C)=O: < 0.73
C#CCN(c1nc(-c2ccccc2)no1)C1CCCCC1: < 1.69
CC(=O)OC[C@H]1O[C@H](OC[C@@H](Cn2cc(CN(c3nc(-c4ccc(F)cc4)no3)C3CCCCC3)nn2)OC(C)=O)C=C[C@@H]1OC(C)=O: < 0.45
COc1ccc(-c2noc(N(Cc3cn(C[C@H](CO[C@@H]4C=C[C@H](OC(C)=O)[C@@H](COC(C)=O)O4)OC(C)=O)nn3)C3CCCCC3)n2)cc1: 4.41
CC(=O)OC[C@H]1O[C@H](OC[C@H](Cn2cc(-c3ccc(-c4noc(NC5CCCCC5)n4)cc3)nn2)OC(C)=O)C=C[C@@H]1OC(C)=O: < 1.24
CC(=O)OC[C@H]1O[C@H](OC[C@@H](Cn2cc(CN(c3nc(-c4ccc(-c5cn(C[C@H](CO[C@@H]6C=C[C@H](OC(C)=O)[C@@H](COC(C)=O)O6)OC(C)=O)nn5)cc4)no3)C3CCCCC3)nn2)OC(C)=O)C=C[C@@H]1OC(C)=O: < 0.18
C#CCN(c1nc(-c2cccc(C)c2)no1)C1CCCCC1: 1.38
